# ASSAY SYSTEM: p110γ (Homo sapiens, UniProt P48736)
# Sequence (P48736 whole entry, species assumed): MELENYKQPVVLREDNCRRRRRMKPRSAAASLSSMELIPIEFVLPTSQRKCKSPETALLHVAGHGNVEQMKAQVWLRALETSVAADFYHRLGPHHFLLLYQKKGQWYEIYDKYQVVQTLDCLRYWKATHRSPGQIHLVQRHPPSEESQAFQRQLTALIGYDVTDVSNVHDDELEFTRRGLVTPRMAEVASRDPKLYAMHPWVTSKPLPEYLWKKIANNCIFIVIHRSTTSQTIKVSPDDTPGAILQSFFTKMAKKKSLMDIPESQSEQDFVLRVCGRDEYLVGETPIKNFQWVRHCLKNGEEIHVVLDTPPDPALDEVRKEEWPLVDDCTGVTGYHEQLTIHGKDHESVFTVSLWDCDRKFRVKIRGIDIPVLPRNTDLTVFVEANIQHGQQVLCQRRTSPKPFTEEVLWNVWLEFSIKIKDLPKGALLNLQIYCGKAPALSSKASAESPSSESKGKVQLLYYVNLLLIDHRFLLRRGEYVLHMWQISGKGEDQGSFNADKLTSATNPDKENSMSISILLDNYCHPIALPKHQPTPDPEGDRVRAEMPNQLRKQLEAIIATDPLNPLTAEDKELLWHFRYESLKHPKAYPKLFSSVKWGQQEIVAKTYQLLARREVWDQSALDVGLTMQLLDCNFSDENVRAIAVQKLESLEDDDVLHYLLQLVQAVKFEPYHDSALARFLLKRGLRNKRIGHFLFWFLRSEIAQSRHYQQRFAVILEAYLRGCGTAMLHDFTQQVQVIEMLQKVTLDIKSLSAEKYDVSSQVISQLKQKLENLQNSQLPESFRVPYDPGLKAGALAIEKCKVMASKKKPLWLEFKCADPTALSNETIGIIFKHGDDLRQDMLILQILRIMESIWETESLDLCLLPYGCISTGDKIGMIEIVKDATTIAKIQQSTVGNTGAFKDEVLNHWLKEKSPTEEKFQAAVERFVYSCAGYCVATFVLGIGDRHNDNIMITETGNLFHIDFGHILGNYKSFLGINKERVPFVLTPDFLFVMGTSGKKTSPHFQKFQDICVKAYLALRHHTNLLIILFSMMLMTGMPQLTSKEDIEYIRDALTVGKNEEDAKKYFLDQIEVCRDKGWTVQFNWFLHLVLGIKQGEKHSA
# ASSAY EXPLANATION: in vitro inhibition of class I PI3K p110γ
# Type: biochemical
# SETUP CONDITIONS: read-out: IC50 for the most potently inhibited Class I PI3K (p110γ); in vitro; Fig. S9
pIC50: −log10 of the molar value.
ENDPOINT LABEL: pIC50

# RECORD SMILES, ASSAY SYSTEM, REPORTED VALUE
rows = [
    ("COc1ccc(-c2sc(NC(C)=O)nc2C)cc1S(=O)(=O)NCCO", "p110γ (Homo sapiens, UniProt P48736)", 7.21),
]
